Molecular target: T1, GIP Receptor (Homo sapiens, UniProt P48546)
T1 construct: host or cells: HEK293T
T1 sequence (P48546 22-466): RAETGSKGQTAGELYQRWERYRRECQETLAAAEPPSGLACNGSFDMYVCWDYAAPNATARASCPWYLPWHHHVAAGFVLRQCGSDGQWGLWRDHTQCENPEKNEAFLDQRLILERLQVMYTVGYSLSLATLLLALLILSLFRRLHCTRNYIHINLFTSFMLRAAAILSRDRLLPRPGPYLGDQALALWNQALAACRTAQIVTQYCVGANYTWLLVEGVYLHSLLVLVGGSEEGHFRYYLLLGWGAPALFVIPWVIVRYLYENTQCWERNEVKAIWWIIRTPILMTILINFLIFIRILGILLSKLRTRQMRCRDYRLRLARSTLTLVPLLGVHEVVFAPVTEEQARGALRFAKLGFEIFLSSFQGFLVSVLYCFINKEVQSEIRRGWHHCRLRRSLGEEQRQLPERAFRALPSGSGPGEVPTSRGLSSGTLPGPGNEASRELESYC
Experiment: GIP receptor-mediated bioluminescence in HEK293T cells with chimeric promiscuous G protein (FIG. 5, Table II)
Type: cell-based
Settings: HEK293T cells, GIP Receptor + promiscuous G protein
OUTCOME MEASURE: Max signal with GIP (RLU × 10^−5)
One number for each entry, in RLU × 10^−5.

MOLECULE	OUTCOME MEASURE	VAL
Mt-clytin K168G: Mitochondrial K168G modified Clytin, SEQ ID NO:16 (protein) MSVLTPLLLRGLTGSARRLPVPRAKIHSLPPEGKLRPNFDNPKWVNRHKFMFNFLDINGDGKITLDEIVSKASDDICAKLGATPEQTKRHQDAVEAFFKKIGMDYGKEVEFPAFVDGWKELANYDLKLWSQNKKSLIRDWGEAVFDIFDKDGSGSISLDEWKAYGRISGICSSDEDAEKTFKHCDLDNSGGLDVDEMTRQHLGFWYTLDPNADGLYGNFVP	Max signal with GIP (RLU × 10^−5)	5.09
Mt-clytin K168E: Mitochondrial K168E modified Clytin, SEQ ID NO:12 (protein) MSVLTPLLLRGLTGSARRLPVPRAKIHSLPPEGKLRPNFDNPKWVNRHKFMFNFLDINGDGKITLDEIVSKASDDICAKLGATPEQTKRHQDAVEAFFKKIGMDYGKEVEFPAFVDGWKELANYDLKLWSQNKKSLIRDWGEAVFDIFDKDGSGSISLDEWKAYGRISGICSSDEDAEKTFKHCDLDNSGELDVDEMTRQHLGFWYTLDPNADGLYGNFVP	Max signal with GIP (RLU × 10^−5)	6.07
Mt-clytin K168Q: Mitochondrial K168Q modified Clytin, SEQ ID NO:20 (protein) MSVLTPLLLRGLTGSARRLPVPRAKIHSLPPEGKLRPNFDNPKWVNRHKFMFNFLDINGDGKITLDEIVSKASDDICAKLGATPEQTKRHQDAVEAFFKKIGMDYGKEVEFPAFVDGWKELANYDLKLWSQNKKSLIRDWGEAVFDIFDKDGSGSISLDEWKAYGRISGICSSDEDAEKTFKHCDLDNSGQLDVDEMTRQHLGFWYTLDPNADGLYGNFVP	Max signal with GIP (RLU × 10^−5)	4.78

IN: Retrieve Max signal with GIP (RLU × 10^−5) measured for Mt-aequorin: Mitochondrial Wild-type Aequorin (mt-Aequorin), SEQ ID NO:6 (protein, listed as Aequorea victoria) MSVLTPLLLRGLTGSARRLPVPRAKIHSLPPEGKLTSDFDNPRWIGRHKHMFNFLDVNHNGKISLDEMVYKASDIVINNLGATPEQAKRHKDAVEAFFGGAGMKYGVETDWPAYIEGWKKLATDELEKYAKNEPTLIRIWGDALFDIVDKDQNGAITLDEWKAYTKAAGIIQSSEDCEETFRVCDIDESGQLDVDEMTRQHLGFWYTMDPACEKLYGGAVP and print it.
OUT: 4.68
